test: small molecules captured by biotinylated probe aFSTL3 – biochemical, small-molecule microarray, fluorescence 635/667, stem cell growth factor project, primary screen (AID 1064);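 further: measures binding of the biotinylated anti-FSTL3 antibody to printed compounds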
conditions: higher = more signal
measurementLabel: composite z-score

Solved entries:
compound	measurementLabel	valueReported
C=CCC(OC(C)=O)[C@@H]1[C@@H](N(Cc2cccc3ccccc23)C(=O)Cc2ccc(OC)cc2)c2cc(OCCCO)ccc2N1C(=O)c1ccc2ccccc2c1 (stereo not given in full)	composite z-score	0.175
COc1ccc([Si](C)(C)[C@H]2[C@H](CC(=O)N3Cc4ccccc4C[C@H]3CO)O[C@@]3(C(=O)N(C)c4ccccc43)[C@@H]2C)cc1	composite z-score	0.271
CN1C(=O)C2C(C3CC3)C=C3CN(Cc4cccc(Cl)c4)[C@@H]([C@@H](O)Cc4ccccc4)C3C2C1=O (stereo not given in full)	composite z-score	-0.357
CCCC#C[Si](O[C@H](CC)c1cn(Cc2ccccc2)nn1)(C(C)C)C(C)C	composite z-score	-0.0658
O=C1OCCC=C[C@H]2OC34C=CCN(c5ccc6ccccc6c5)C(=O)[C@H]3N(CCO)C(=O)[C@@H]4C12 (stereo not given in full)	composite z-score	-0.562
C=CCC(OC(C)=O)[C@@H]1[C@@H](N(Cc2cccc3ccccc23)C(=O)Cc2ccc(OC)cc2)c2cc(OCCCO)ccc2N1C(=O)Cc1ccc2ccccc2c1 (stereo not given in full)	composite z-score	-0.289
COC(=O)[C@@]1(Cc2ccc(F)cc2)[C@H]2c3cc(C(=O)N(C)C)n(CCc4ccc(O)c(O)c4)c3C[C@H]2CN1C(=O)c1ccccc1	composite z-score	-0.0383
C=CC[C@@]12N=C(c3ccc(OCCCO)cc3)O[C@@H]1c1ccccc1N(CCC)C2=O	composite z-score	0.953
O=C1N(Cc2ccccc2)c2ccccc2C[C@@]12COC(c1ccc(OCCCO)cc1)=N2	composite z-score	0.689
COCCOC(=O)N1C(=O)[C@@]2(c3cc(C#CCC(C(=O)OC)C(=O)OC)ccc31)[C@H](C(N)=O)[C@H]1C(=O)O[C@H](c3ccccc3)[C@H](c3ccccc3)N1[C@@H]2c1ccc(O)cc1	composite z-score	-0.291

I'd like to know its composite z-score. The compound in question is COCCn1c(C(=O)N(C)C)cc2c1C[C@H]1CN(C(=O)c3ccccc3)[C@@](Cc3ccc(OC)cc3)(C(=O)OC)[C@@H]21
0.609

I'd like to know its composite z-score. The compound in question is CCCNC(=O)[C@@]1(Sc2ccc(C)cc2)CC(=O)N(Cc2ccccc2Cl)[C@@H]1c1ccc(CO)cc1I
0.746

I'd like to know its composite z-score. The compound in question is CC(C)(C)N1CC=CC23O[C@@H]4/C=C\CCCOC(=O)C4[C@H]2C(=O)N(CCCCCO)[C@@H]3C1=O (stereo not given in full)
1.26

I'd like to know its composite z-score. The compound in question is O=C(NCc1ccc(F)cc1)[C@H]1C[C@H]2C(=O)N3CCC[C@H]3C(=O)N2[C@H]1c1ccc(O)cc1
0.883

I'd like to know its composite z-score. The compound in question is CO[C@H]1O[C@H](CO)[C@@H](OC(=O)Nc2ccccc2-c2ccccc2)[C@H](OC(=O)Nc2ccccc2)[C@H]1OC(=O)Nc1ccccc1
0.164
